Molecular target: Zinc finger and BTB domain-containing protein 16 (Homo sapiens, UniProt Q05516)
Sequence (Q05516 whole entry, the tested form may be a part): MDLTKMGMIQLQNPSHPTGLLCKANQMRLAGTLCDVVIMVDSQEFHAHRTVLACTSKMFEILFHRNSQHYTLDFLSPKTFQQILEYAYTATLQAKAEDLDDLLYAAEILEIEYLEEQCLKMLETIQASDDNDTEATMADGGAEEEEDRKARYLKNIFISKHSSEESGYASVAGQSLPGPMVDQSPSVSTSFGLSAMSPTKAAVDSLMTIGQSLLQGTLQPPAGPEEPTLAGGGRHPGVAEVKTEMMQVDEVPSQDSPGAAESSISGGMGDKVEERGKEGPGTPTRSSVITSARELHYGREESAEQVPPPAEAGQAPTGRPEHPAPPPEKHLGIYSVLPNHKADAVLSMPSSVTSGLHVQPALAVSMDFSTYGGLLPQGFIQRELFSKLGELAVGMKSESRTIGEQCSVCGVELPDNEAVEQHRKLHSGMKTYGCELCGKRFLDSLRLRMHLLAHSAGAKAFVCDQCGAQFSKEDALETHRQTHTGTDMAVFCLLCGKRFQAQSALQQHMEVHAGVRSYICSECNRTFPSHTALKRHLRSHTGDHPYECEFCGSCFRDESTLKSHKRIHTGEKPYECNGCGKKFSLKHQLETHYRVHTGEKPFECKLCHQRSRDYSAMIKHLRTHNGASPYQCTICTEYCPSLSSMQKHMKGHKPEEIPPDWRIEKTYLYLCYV
Test: ChEBML_1665992
pIC50: −log10 of the molar value.

{"compound.smiles": "N#Cc1cnn2c3cc(nc12)N1C[C@H](C[C@H]1CO)OC/C=C/COc1cc(cc2c1NC(=O)CC2)N3", "tgt": "Zinc finger and BTB domain-containing protein 16 (Homo sapiens, UniProt Q05516)", "pIC50": "< 4.52"}
